Tested on: T-cell
run.description: CD25 cell surface staining on T-cells co-stimulated with anti-CD3 and anti-CD28 antibody (Biological Example 2)
Type: cell-based, human
assay.setup: Homo sapiens, T-cell, fold change over baseline; 0.3 μM Cbl-b inhibitor; primary human total T-cells; read-out: CD25 staining Anti-CD3/Anti-CD28 stimulation
Excerpt: Methods for experimentally determining increased T-cell activation, increased T-cell proliferation, decreased T-cell exhaustion, and/or decreased T-cell tolerance are well known in the art. Modulation of activity of an immune cell, such as a T-cell, a B cell or a NK cell can be measured by determining a baseline value for a parameter of interest (e.g., cytokine secretion). […] A positive response for immune cell activation can then be determined by the obtained reference value. […]

{"columns": ["compound", "fold induction at 0.3 µM"],
 "data": [
  ["C[C@H](Cc1nncn1C)c1cccc(N2Cc3c(cccc3C(F)(F)F)C2=O)c1 [Compound 255a]", "1.31 to 1.5"],
  ["C[C@H](Sc1nncn1C)c1ccnc(NC(=O)c2cc3c(C(F)(F)F)cccc3[nH]2)c1", "< 1"],
  ["C[C@H](Cc1nncn1C)c1cccc(N2Cc3c(cc(C(=O)N4CC[C@H](O)C4)cc3C(F)(F)F)C2=O)c1", "1.01 to 1.3"]
]}

* * *

Documented fold induction at 1 µM across a set of compounds
Tested on: T-cell
run.description: CD25 cell surface staining on T-cells stimulated with anti-CD3 antibody alone (Biological Example 2)
Format: cell-based, human
assay.setup: T-cell; fold change over baseline; 1 μM Cbl-b inhibitor; primary human total T-cells; read-out: CD25 staining Anti-CD3 stimulation

{"columns": ["compound", "tested.target", "fold induction at 1 µM"],
 "data": [
  ["C[C@H](Cc1nncn1C)c1ccnc(NC(=O)c2cccc(C(F)(F)F)n2)c1 [Compound 302]", "T-cell", "< 0.6"],
  ["C[C@H](Sc1nncn1C)c1cccc(NC(=O)c2cc(C3CC3)cc(C(F)(F)F)n2)c1 [Compound 67]", "T-cell", "0.801 to 1"],
  ["C[C@H](Cc1nncn1C)c1cccc(N2Cc3c(cc(C(=O)N4CC[C@H](O)C4)cc3C3CC3)C2=O)c1 [Compound 277]", "T-cell", "0.801 to 1"],
  ["C[C@H](Cc1nncn1C)c1cccc(NC(=O)c2cccc(C(F)(F)CO)n2)c1 [Compound 188]", "T-cell", "< 0.6"]
]}

* * *

tested.target: Cbl-b (Homo sapiens)
Sequence (Q13191 36-427): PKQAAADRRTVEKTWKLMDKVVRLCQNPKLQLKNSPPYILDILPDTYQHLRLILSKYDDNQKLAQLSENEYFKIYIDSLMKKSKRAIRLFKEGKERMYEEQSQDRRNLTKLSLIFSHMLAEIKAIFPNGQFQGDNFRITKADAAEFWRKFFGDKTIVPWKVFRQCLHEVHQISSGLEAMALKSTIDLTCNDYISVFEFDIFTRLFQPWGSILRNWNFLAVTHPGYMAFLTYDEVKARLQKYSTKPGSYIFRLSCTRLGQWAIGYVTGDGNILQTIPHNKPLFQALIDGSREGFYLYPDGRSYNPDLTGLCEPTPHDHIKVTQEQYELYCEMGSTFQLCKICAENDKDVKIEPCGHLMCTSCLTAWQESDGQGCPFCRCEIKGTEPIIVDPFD
run.description: Cbl-b inhibition assay (Cbl-b activity assay, FRET, Biological Example 1; 100 mM NaCl, 60 nM Src kinase)
Assay type: biochemical
assay.setup: upper bound stated in text lists; read-out: IC50 values in the Cbl-b inhibition assay of Biological Example 1

{"columns": ["molecule", "IC50"],
 "data": [
  ["C[C@H](Cc1nncn1C)c1cccc(NC(=O)c2nc(C(F)(F)F)c[nH]2)c1", "≤ 300 nM"],
  ["Cc1cc(C(=O)Nc2cccc(C3(Cc4nncn4C)COC3)c2)nc(C2CC2)n1", "≤ 100 nM"],
  ["Cn1cnnc1CC1(c2cccc(N3Cc4c(cc(CN5CC(C)(C#N)C5)cc4C(F)(F)F)C3=O)c2)COC1", "≤ 100 nM"],
  ["C[C@H](Sc1nncn1C)c1cccc(NC(=O)c2cc(C3CC3)cc(C(F)(F)F)n2)c1", "≤ 100 nM"],
  ["Cn1cnnc1CC1(c2cccc(N3Cc4c(cc(CN5CCO[C@H](C(F)(F)F)C5)cc4C(F)(F)F)C3=O)c2)COC1", "≤ 100 nM"],
  ["C[C@H](Cc1nnco1)c1cccc(N2Cc3c(cccc3C(F)(F)F)C2=O)c1", "≤ 10000 nM"],
  ["C[C@@H](c1cc2c(c(C(F)(F)F)c1)CN(c1cccc(C3(Cc4nncn4C)COC3)c1)C2=O)N1CCC(C)(F)CC1 [Example 553a]", "≤ 100 nM"]
]}

* * *

Test system: primary human total T-cells
run.description: T-cell activation assessed by cytokine secretion (GM-CSF, IFNγ, TNFα)
Assay type: cell-based
assay.setup: CD3 alone stimulation, 10 μM, read-out: GM-CSF secretion
value.type: fold induction at 10 µM

{"columns": ["molecule", "value.type", "reported.value"],
 "data": [
  ["C[C@H](Cc1nncn1C)c1cccc(N2Cc3c(cc(CN4CC[C@H](F)C4)cc3C(F)(F)F)C2=O)c1 [Compound 399]", "fold induction at 10 µM", "> 4"],
  ["Cc1cc(C(=O)Nc2cccc(C3(Cc4nncn4C)COC3)c2)nc(C2CC2)n1 [Compound 336]", "fold induction at 10 µM", "2.01 to 4"],
  ["C[C@H](Cc1nncn1C)c1cccc(N2Cc3c(cccc3C(F)(F)F)C2=O)c1 [Compound 255a]", "fold induction at 10 µM", "≤ 1.5"],
  ["Cc1cc2c(c(C3CC3)n1)CN(c1cccc([C@H](C)Cc3nncn3C)c1)C2=O [Compound 372]", "fold induction at 10 µM", "1.51 to 2"]
]}

* * *

Tested on: anergic human T-cells
run.description: Anergic T-cell activation assessed by IFNγ secretion (ionomycin-induced anergy)
Assay type: cell-based
assay.setup: 0.37 μM, anergic T-cells re-challenged with anti-CD3 and anti-CD28 for 24 hours, read-out: IFNγ Fold change from baseline
value.type: fold induction at 0.37 µM

{"columns": ["structure.notation", "value.type", "reported.value"],
 "data": [
  ["Cn1cnnc1[C@@H]1C[C@@H]1c1cccc(N2Cc3c(cccc3C(F)(F)F)C2=O)c1", "fold induction at 0.37 µM", "≤ 2.5"],
  ["C[C@@H](c1cc2c(c(C(F)(F)F)c1)CN(c1cccc(C3(Cc4nncn4C)COC3)c1)C2=O)N1CC[C@H](F)C1", "fold induction at 0.37 µM", "≤ 2.5"],
  ["Cn1cnnc1CC1(c2cccc(NC(=O)c3cc(CN4CCC5(CC5)C4)cc(C4CC4)n3)c2)COC1", "fold induction at 0.37 µM", "> 4.01"],
  ["C[C@H](Cc1nncn1C)c1cccc(N2Cc3c(cc(CN4CC(C)(O)C4)cc3C(F)(F)F)C2=O)c1", "fold induction at 0.37 µM", "≤ 2.5"]
]}

* * *

The compounds listed here are annotated with their fold induction at 1 µM.
System: T-cell
run.description: IL-2 secretion from T-cells co-stimulated with anti-CD3 and anti-CD28 antibody (Biological Example 2)
Assay type: cell-based, human
assay.setup: Homo sapiens, T-cell, fold change over baseline; 1 μM Cbl-b inhibitor; primary human total T-cells; read-out: IL-2 secretion Anti-CD3/Anti-CD28 stimulation

{"columns": ["compound", "fold induction at 1 µM"],
 "data": [
  ["Cn1cnnc1C[C@](C)(F)c1cccc(N2Cc3c(cccc3C(F)(F)F)C2=O)c1 [Compound 298b]", "1.01 to 2.5"],
  ["C[C@H](Sc1nncn1C)c1cccc(NC(=O)c2cncc(C(F)(F)F)n2)c1", "1.01 to 2.5"],
  ["C[C@H](Sc1nncn1C)c1cccc(NC(=O)c2ccc(Cl)c(C(F)(F)F)n2)c1", "< 1"],
  ["Cc1cc(C(=O)Nc2cccc([C@@H](C)Cc3nncn3C)c2)nc(C2CC2)n1", "1.01 to 2.5"],
  ["COc1ccc(C(=O)Nc2cccc([C@H](C)Sc3nncn3C)c2)nc1C1CC1", "1.01 to 2.5"],
  ["C[C@H](Sc1nncn1C)c1cccc(NC(=O)c2ccc(F)c(C3CC3)n2)c1", "2.51 to 5"],
  ["C[C@H](Cc1nncn1C)c1cccc(NC(=O)c2cc(O[C@H]3CC[C@@H](O)C3)ccn2)c1", "1.01 to 2.5"],
  ["C[C@H](Sc1nncn1C)c1cccc(NC(=O)c2cc(C3CC3)cc(C(F)(F)F)n2)c1", "1.01 to 2.5"]
]}

* * *

Measured fold induction at 10 µM accompanies every entry in the list below.
Test system: primary human total T-cells
run.description: T-cell activation assessed by cell proliferation (Cell Trace Violet)
Type: cell-based
assay.setup: CD3/CD28 stimulation, CD4 T-cells, 10 μM, read-out: % CP (cell proliferation) (CD4)

{"columns": ["structure.notation", "fold induction at 10 µM"],
 "data": [
  ["Cn1cnnc1[C@@H]1C[C@@H]1c1cccc(N2Cc3c(cccc3C(F)(F)F)C2=O)c1", "> 4"],
  ["C[C@H](Cc1nncn1C)c1cccc(NC(=O)c2n[nH]c3c2CCC3)c1", "> 4"],
  ["C[C@H](Cc1nncn1C)c1cccc(N2Cc3c(ccnc3C3CC3)C2=O)c1", "> 4"]
]}

* * *

Measured IC50, listed per entry.
tested.target: UniProt:Q13191
run.description: Cbl-b inhibition assay (Cbl-b activity assay, FRET, Biological Example 1; 100 mM NaCl, 60 nM Src kinase)
Assay type: biochemical
assay.setup: upper bound stated in text lists; read-out: IC50 values in the Cbl-b inhibition assay of Biological Example 1

{"columns": ["compound", "IC50"],
 "data": [
  ["Cn1cnnc1CC1(c2cccc(N3Cc4c(cc(CN5CCOC(C)(C)C5)cc4C(F)(F)F)C3=O)c2)COC1 [Example 665]", "≤ 100 nM"],
  ["C[C@H](Cc1nncn1C)c1cccc(N2Cc3c(cc(CN4CC(O)C4)cc3C(F)(F)F)C2=O)c1 [Compound 393]", "≤ 100 nM"],
  ["C[C@H](Sc1nncn1C)c1cccc(NC(=O)c2cc(C(C)(C)O)cc(C(F)(F)F)n2)c1 [Compound 85]", "≤ 500 nM"],
  ["C[C@H](Cc1nncn1C)c1cccc(NC(=O)c2cc(C(=O)N3CCNCC3)ccn2)c1 [Compound 242]", "≤ 10000 nM"],
  ["Cn1cnnc1CC1(c2cccc(N3Cc4c(cc(N5CC6(C5)CC(F)(F)C6)cc4C(F)(F)F)C3=O)c2)COC1 [Example 602]", "≤ 100 nM"],
  ["Cn1cnnc1CC1(c2cccc(N3Cc4c(cc(CN5CCOCC5)cc4C(F)(F)F)C3=O)c2)COC1 [Compound 431]", "≤ 100 nM"],
  ["COc1ccc2c(c1)CN(Cc1cc3c(c(C(F)(F)F)c1)CN(c1cccc(C4(Cc5nncn5C)COC4)c1)C3=O)C2 [Example 656]", "≤ 100 nM"],
  ["Cn1cnnc1CC1(c2cccc(N3Cc4c(cc(CN5CCC(C)(C#N)CC5)cc4C(F)(F)F)C3=O)c2)COC1 [Example 642]", "≤ 100 nM"],
  ["CN1CC2CC(C1)N2c1cc2c(c(C(F)(F)F)c1)CN(c1cccc([C@@](C)(F)C(F)(F)c3nncn3C)c1)C2=O [Example 566]", "≤ 100 nM"],
  ["CC(=O)N1CCN(c2ccc3cnc(C(=O)Nc4cccc([C@H](C)Cc5nncn5C)c4)cc3c2)CC1 [Compound 211, 2,2,2-trifluoroacetate]", "≤ 100 nM"],
  ["C[C@@H](c1cc2c(c(C(F)(F)F)c1)CN(c1cccc([C@@](C)(F)C(F)(F)c3nncn3C)c1)C2=O)N1CC[C@H](F)C1 [Compound 460]", "≤ 100 nM"],
  ["CC(C)c1nccc2c1CN(c1cccc([C@H](C)Cc3nncn3C)c1)C2=O [Compound 259]", "≤ 1000 nM"],
  ["C[C@H](Cc1ncnn1C)c1cccc(N2Cc3c(cccc3C(F)(F)F)C2=O)c1 [Compound 264]", "≤ 10000 nM"],
  ["Cn1cnnc1CC1(c2cccc(NC(=O)c3cc(CN4CCC4)nc(C4CC4)n3)c2)COC1 [Compound 504]", "≤ 100 nM"],
  ["Cn1cnnc1CC1(c2cccc(N3Cc4c(cc(CN5CCC(C)(F)CC5)cc4C(F)(F)F)C3=O)c2)COC1 [Example 620]", "≤ 100 nM"],
  ["CN1C[C@H]2CC[C@@H](C1)N2c1cc(C(=O)Nc2cccc(C3(Cc4nncn4C)COC3)c2)nc(C2CC2)n1 [Example 573]", "≤ 100 nM"],
  ["C[C@H](Sc1nncn1C)c1cccc(NC(=O)c2cc(C(=O)N3CCC(O)CC3)ccn2)c1 [Compound 145]", "≤ 10000 nM"],
  ["C[C@H]1C=CCN1Cc1cc2c(c(C(F)(F)F)c1)CN(c1cccc(C3(Cc4nncn4C)COC3)c1)C2=O [Compound 427]", "≤ 100 nM"],
  ["C[C@H](Cc1nncn1C)c1cccc(NC(=O)c2nc3c(C(F)(F)F)cccc3[nH]2)c1 [Compound 196]", "≤ 100 nM"],
  ["C[C@H](c1cc2c(c(C(F)(F)F)c1)CN(c1cccc(C3(Cc4nncn4C)COC3)c1)C2=O)N1CC[C@H](F)C1 [Compound 413]", "≤ 100 nM"],
  ["C[C@H](Cc1nncn1C)c1cccc(NC(=O)c2cc(O[C@@H]3CC[C@H](O)C3)ccn2)c1 [Compound 207]", "≤ 1000 nM"],
  ["C[C@H](Sc1nncn1C)c1cccc(NC(=O)c2ccc(C#N)c(C3CC3)n2)c1 [Compound 92]", "≤ 100 nM"],
  ["CN1CC2CCC(C1)N2c1cc2c(c(C(F)(F)F)c1)CN(c1cccc(C3(Cc4nncn4C)COC3)c1)C2=O [Compound 386]", "≤ 100 nM"],
  ["CC(c1cc2c(c(C(F)(F)F)c1)CN(c1cccc(C3(Cc4nncn4C)COC3)c1)C2=O)n1ccnc1 (centres unmarked) [Compound 542]", "≤ 100 nM"],
  ["C[C@@H]1CN(Cc2cc(C(=O)Nc3cccc(C4(Cc5nncn5C)COC4)c3)nc(C3CC3)c2)CCO1 [Compound 501]", "≤ 100 nM"],
  ["C[C@H](Cc1nocc1C(F)(F)F)c1cccc(N2Cc3c(cc(C(=O)N4CC[C@H](O)C4)cc3C(F)(F)F)C2=O)c1 [Compound 484]", "≤ 300 nM"],
  ["Cn1cnnc1C(F)(F)C1(c2cccc(N3Cc4c(cc(CN5CC(F)C5)cc4C(F)(F)F)C3=O)c2)COC1 [Example 679]", "≤ 100 nM"],
  ["C[C@H](Sc1nncn1C)c1cccc(NC(=O)c2cc(C(=O)N3CCC[C@H]3C)ccn2)c1 [Compound 142]", "≤ 10000 nM"],
  ["C[C@H](Sc1nncn1C)c1cccc(NC(=O)c2cc(C(F)(F)F)c(Cl)cn2)c1 [Compound 40]", "≤ 10000 nM"]
]}
